Assay: Antioxidant activity assessed as luminol-dependent chemiluminescence at 100 uM relative to control
Format: functional
Active and inactive are the calls of the source. The rule behind the calls is not given here.
measured.property: Activity

                                   compound  measured_property  measured_result
0  CCOC(=O)C(C(C)=O)C(c1ccc(C(=O)O)cc1)c1c(O)c2ccccc2oc1=O (centres undefined)           Activity           Active
1  CCOC(=O)C(C(C)=O)C(c1ccc(O)cc1)c1c(O)c2ccccc2oc1=O (centres undefined)           Activity           Active
2  CCOC(=O)C(C(C)=O)C(c1cccc([N+](=O)[O-])c1)c1c(O)c2ccccc2oc1=O (centres undefined)           Activity               7%
3  CCOC(=O)C(C(C)=O)C(c1cc(OC)c(OC)c(OC)c1)c1c(O)c2ccccc2oc1=O (centres undefined)           Activity           Active
